# Target Or System: human GlyT1c transporter (Homo sapiens (Human), UniProt P48067)
# Sequence (P48067 whole entry): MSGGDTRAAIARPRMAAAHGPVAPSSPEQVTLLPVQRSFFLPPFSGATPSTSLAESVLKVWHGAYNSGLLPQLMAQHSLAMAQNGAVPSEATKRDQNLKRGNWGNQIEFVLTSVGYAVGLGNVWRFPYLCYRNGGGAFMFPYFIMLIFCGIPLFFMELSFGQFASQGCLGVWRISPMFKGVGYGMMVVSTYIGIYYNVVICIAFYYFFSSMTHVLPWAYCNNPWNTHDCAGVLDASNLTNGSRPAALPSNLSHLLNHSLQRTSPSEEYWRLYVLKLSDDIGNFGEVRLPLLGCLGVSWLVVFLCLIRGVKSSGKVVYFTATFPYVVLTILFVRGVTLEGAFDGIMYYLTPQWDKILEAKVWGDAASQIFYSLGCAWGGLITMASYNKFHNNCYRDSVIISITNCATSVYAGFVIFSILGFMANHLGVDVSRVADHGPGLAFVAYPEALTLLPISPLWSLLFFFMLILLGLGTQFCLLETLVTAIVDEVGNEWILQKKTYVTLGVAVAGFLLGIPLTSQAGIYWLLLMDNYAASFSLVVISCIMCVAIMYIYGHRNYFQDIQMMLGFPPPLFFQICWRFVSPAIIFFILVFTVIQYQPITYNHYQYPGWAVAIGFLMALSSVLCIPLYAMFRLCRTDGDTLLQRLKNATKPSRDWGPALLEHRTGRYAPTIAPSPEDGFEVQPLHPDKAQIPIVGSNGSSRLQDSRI
# Experimental Details: Radioligand binding assay using recombinant CHO cell membranes expressing human GlyT1
# Measurement Parameters: human GlyT1c-expressing CHO cell membranes; read-out: radioligand binding Kiapp
Structures can show the parent of a compound that is named as a salt.
Measured Ki, listed per entry.

As a guide, the following entries are already answered.
- CCCS(=O)(=O)N(C)CCCc1ccc2c(c1)C(Cc1ccc(F)cc1)C(N)CC2 (stereo not drawn) [Example 232, hydrochloride]: ≤ 100 nM
- CNC1CCc2ccc(OCCNS(=O)(=O)CC3CC3)cc2C1Cc1cc(F)cc(Cl)c1 (stereo not drawn) [Example 158, hydrochloride]: ≤ 10 nM
- CCCS(=O)(=O)NCCOc1ccc2c(c1)C(Cc1ccc(Cl)cc1Cl)C(NC(=O)OCC)CC2 (stereo not drawn): ≥ 10000 nM
- CCCS(=O)(=O)CCc1ccc2c(c1)C(Cc1cccc(Cl)c1)C(N)CC2 (stereo not drawn) [Example 326, hydrochloride]: ≤ 1000 nM
- NC1CCc2ccc(OC(F)F)cc2C1Cc1ccc(Cl)cc1 (stereo not drawn) [Example 36, hydrochloride]: ≤ 100000 nM

Note: attention shifts to another entry.
Query block: Sample NC1CCc2ccc(CCCNS(=O)(=O)CC3CC3)cc2C1Cc1ccc(F)c(F)c1 (stereo not drawn) [Example 204, hydrochloride] — what was its Ki?
Result block: ≤ 100 nM
